Reported TGI is given for each of the following compounds.
system: M14 melanoma; experiment: NCI tumour cell line growth inhibition, 48 h

For orientation, consider the following solved cases.
compound	measured target	TGI
CCCN(CCC)c1ccc(C=O)c(C)c1	M14 melanoma	> 100 µM
CN(C)c1ccc(/C=C(\NC(=O)c2ccccc2)C(=O)Nc2cccc(C(=O)NCCCO)c2)cc1	M14 melanoma	> 100 µM

Measured TGI, CCC1(c2ccc(N)cc2)CCC(=O)NC1=O (stereo unspecified) : > 4560 µM

Measured TGI, `CN(C)CCNC(=O)c1ccc2oc3cc4ccccc4c(=O)n3c2c1` : > 100 µM

Measured TGI, Cc1ccccc1C(C(=O)NC1CCCCC1)N(C(=O)CNc1ncccc1F)c1cccc(F)c1 (stereo unspecified) : > 100 µM

Measured TGI, CC(C(=O)n1ccnc1)N1c2ccccc2Sc2ccccc21 (stereo unspecified) : > 100 µM

---

system: NCI-H23 lung; experiment: NCI tumour cell line growth inhibition, 48 h
quantity measured: TGI

For orientation, consider the following solved cases.
compound	TGI
COc1ccc(/C=C2\CCC(CCN3CCOCC3)C2=O)cc1 (stereo not drawn)	> 100 µM
CCCC(=O)OC[n+]1ccc(-c2c(COC(=O)NC(C)C)c(COC(=O)NC(C)C)c3n2CCC3)cc1	> 100 µM

// moving on: another record for TGI
Measured TGI, `O=c1c(-c2ccccc2)c(SCCN2CCOCC2)n(-c2ccccc2)c(=S)n1-c1ccccc1` : > 100 µM

---

tested on: A549 NSCLC; test: NCI tumour cell line growth inhibition, 48 h
quantity measured: TGI

For orientation, consider the following solved cases.
smiles repr	measured target	quantity measured	result
CC(C)OP(=O)(OC(C)C)C(=NCCN=C(NNc1ccccc1[N+](=O)[O-])P(=O)(OC(C)C)OC(C)C)NNc1ccccc1[N+](=O)[O-]	A549 NSCLC	TGI	> 100 µM
C/C(=N/O)c1sc(-c2nc(C)c(/C(C)=N\O)s2)nc1C	A549 NSCLC	TGI	> 100 µM
Cn1c(=O)c(Oc2ccc(F)cc2F)cc2cnc(NC3CCOCC3)nc21	A549 NSCLC	TGI	> 25 µM

Measured TGI, `O=c1[nH]c2cc([N+](=O)[O-])c(N/N=C/c3ccc(Cl)cc3Cl)c([N+](=O)[O-])c2[nH]1` : > 100 µM

Measured TGI, `COc1cc(CNc2c3ccccc3nc3ccccc23)cc(OC)c1OC` : 12.7 µM

---

test system: SF-268 CNS; assay: NCI tumour cell line growth inhibition, 48 h
Reported TGI is given for each of the following compounds.

For orientation, consider the following solved cases.
compound	result
C=CC(=O)N1CC[C@H](n2nc(C#Cc3cc(OC)cc(OC)c3)c3c(N)ncnc32)C1	> 100 µM
O=c1[nH]c2c(c(=O)[nH]1)C(c1ccc([N+](=O)[O-])cc1)c1c([nH]c(=O)[nH]c1=O)O2	> 100 µM
O=[N+]([O-])c1ccc2c(c1)C(c1ccccc1Cl)=Nc1c(n[nH]c1-c1cccnc1)N2	> 25 µM
CC1=CC(=O)N(n2c(-c3ccccc3)n[nH]c2=O)C1=O	> 100 µM
O=[N+]([O-])/C(Cl)=C/C(=C1/Nc2ccccc2O1)[N+](=O)[O-]	54.4 µM

Measured TGI, NC(=O)CCC(NC(=O)c1c2ccccc2nc2ccccc12)C(=O)O (stereo not drawn) : > 100 µM

Measured TGI, `COc1ccc(OC)c(/C=C/c2ccnc3ccccc23)c1` : 18.2 µM

Measured TGI, `CCNc1nnc(-c2ccccc2Nc2ccccc2-c2nnc(NCC)s2)s1` : 68.6 µM

These measurements were taken from PubChem BioAssay (NCI).
